- Experiment: AUC (0 to 24 hrs) in cynomolgus monkey at 1 mg/kg, iv
- Assay type: ADME, organism-based, Macaca fascicularis
- Set-up: dose 1 mg/kg, time < 24 hr, route intravenous
- Condition Info: in vivo
Measurement Name: AUC(0-t) at 24 h (µM·h)
Respond numerically; units are µM·h and should not be typed.

q: Item under review: O=C(CC1(c2ccccc2)C2CC3CC1CC(C2)C3O)N1CC(O)C1 (stereo in doubt; form 2) . Reported AUC(0-t) at 24 h?
a: 2.3

====

- Experiment: Apparent elimination half life in cynomolgus monkey at 1 mg/kg, iv
- Format: ADME, organism-based, Macaca fascicularis
- Condition Info: in vivo, read-out: betat1/2(app) (converted)
Measurement Name: half-life (h)
Respond numerically; units are h and should not be typed.

q: Item under review: O=C(CC1(c2ccccc2)C2CC3CC1CC(C2)C3O)N1CC(O)C1 (stereo in doubt; form 2) . Reported half-life?
a: 6
